Documented AC50 across a set of molecules
Measured on: human PAH with the R408W mutation (Homo sapiens, UniProt P00439, R408W)
Construct: expressed in transfected cells
Procedure details: Cell Based Phenylalanine Flux Assay
Condition info: A375 cells expressing human R408W PAH; 24 hrs compound incubation; 13C-Tyrosine by LC-MS; average where tested multiple times; read-out: AC50

Molecule: COCc1ccc2c(C(=O)N3CCc4[nH]cnc4[C@@H]3c3ncc4ccccc4n3)cnn2c1 [Example 154]
AC50: > 5 µM

Molecule: O=C(c1nnc(N2CCC(F)CC2)o1)N1CCc2[nH]cnc2[C@H]1c1ncc2ccccc2n1 [Example 159]
AC50: 1 to 5 µM

Molecule: FC(F)(F)c1cnc(N2CCc3[nH]cnc3C2c2ccc3ccccc3n2)nc1 (stereo in doubt) [Example 29]
AC50: < 0.5 µM

Consider O=C(c1cnn2cc(-c3cncnc3)ccc12)N1CCc2[nH]cnc2[C@H]1c1cc2ccccc2cn1 [Example 487] . Its measured AC50 is < 0.5 µM

Consider Cn1nccc1-c1nnc(C(=O)N2CCc3[nH]cnc3[C@H]2c2ncc3ccccc3n2)o1 [Example 203] . Its measured AC50 is < 0.5 µM

Consider Cc1nnc(C(=O)N2CC3(CC3)c3[nH]cnc3[C@H]2c2cc3ccccc3cn2)o1 [Example 490] . Its measured AC50 is < 0.5 µM

Consider O=C(c1cnn2cc(Br)ccc12)N1CCc2[nH]cnc2[C@H]1c1cc2ccccc2cn1 [Example 352] . Its measured AC50 is < 0.5 µM

Consider Cn1nc(C(F)F)cc1C(=O)N1CCc2[nH]cnc2C1c1ccc2ccccc2n1 (stereo in doubt) [Example 74] . Its measured AC50 is 1 to 5 µM

Consider Cn1nc(C(F)F)nc1C(=O)N1CCc2[nH]cnc2[C@H]1c1ncc2ccccc2n1 [Example 276] . Its measured AC50 is < 0.5 µM

Consider O=C(c1nnc(C2CC2)o1)N1CCc2[nH]cnc2[C@@H]1c1ncc2ccccc2n1 [Example 140] . Its measured AC50 is > 5 µM

Consider O=C(c1cncs1)N1CCc2[nH]cnc2C1c1ccc2ccccc2n1 (stereo in doubt) [Example 5] . Its measured AC50 is 0.5 to 1 µM

Consider O=C(c1nnc(-c2ccn(C(F)F)n2)o1)N1CCc2[nH]cnc2[C@H]1c1ncc2ccccc2n1 [Example 189] . Its measured AC50 is < 0.5 µM

Consider O=C(c1nnc(N2CCC(F)CC2)o1)N1CCc2[nH]cnc2[C@@H]1c1ncc2ccccc2n1 [Example 160] . Its measured AC50 is > 5 µM

Consider O=C(c1cnn(CC(F)(F)F)c1C(F)F)N1CCc2[nH]cnc2C1c1ccc2ccccc2n1 (stereo in doubt) [Example 125] . Its measured AC50 is 1 to 5 µM

Consider O=C(c1nnc(-c2ccccn2)o1)N1CCc2[nH]cnc2C1c1ccc2ccccc2n1 (stereo in doubt) [Example 46] . Its measured AC50 is > 5 µM

Consider O=C(c1nnc(-c2cnccn2)o1)N1CCc2[nH]cnc2[C@@H]1c1ncc2ccccc2n1 [Example 191] . Its measured AC50 is > 5 µM

---

Measured on: human PAH with the R408W mutation (Homo sapiens, UniProt P00439, R408W)
Construct: expressed in transfected cells
Sequence (P00439 1-452 R408W): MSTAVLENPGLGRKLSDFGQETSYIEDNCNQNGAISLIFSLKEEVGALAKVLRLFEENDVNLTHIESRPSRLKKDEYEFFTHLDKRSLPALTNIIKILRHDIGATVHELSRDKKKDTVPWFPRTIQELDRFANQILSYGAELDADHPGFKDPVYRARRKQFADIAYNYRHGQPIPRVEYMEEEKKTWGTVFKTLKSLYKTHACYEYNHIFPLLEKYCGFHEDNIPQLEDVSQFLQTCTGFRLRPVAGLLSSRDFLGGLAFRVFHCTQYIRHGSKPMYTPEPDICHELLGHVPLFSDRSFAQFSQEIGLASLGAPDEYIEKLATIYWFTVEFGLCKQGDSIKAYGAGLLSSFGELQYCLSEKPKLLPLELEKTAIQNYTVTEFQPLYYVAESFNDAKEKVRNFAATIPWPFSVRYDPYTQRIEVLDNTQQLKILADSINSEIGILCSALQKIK
Procedure details: Cell Based Phenylalanine Flux Assay
Condition info: A375 cells expressing human R408W PAH; 24 hrs compound incubation; 13C-Tyrosine by LC-MS; average where tested multiple times; read-out: AC50
Property name: AC50

Previously resolved entries follow.
Compound: Cn1ncnc1C(=O)N1CCc2[nH]cnc2[C@H]1c1cc2ccccc2cn1 [Example 518]
Assay value: < 500 nM
//
Compound: CN(C)Cc1ccc2c(C(=O)N3CCc4[nH]cnc4[C@@H]3c3cc4ccccc4cn3)cnn2c1 [Example 331]
Assay value: > 5000 nM
//
Compound: O=C(c1nnc(-c2ccc(F)cn2)o1)N1CCc2[nH]cnc2[C@@H]1c1cc2ccccc2cn1 [Example 341]
Assay value: > 5000 nM

Please look at the following compound next.
Consider Cc1nc(-c2ccccn2)oc1C(=O)N1C[C@@H](C)c2[nH]cnc2[C@H]1c1cc2ccccc2cn1 [Example 406] . Its measured AC50 is < 500 nM
